- TARGET OR SYSTEM: Coagulation factor X (Homo sapiens, UniProt P00742)
- Sequence (P00742 41-179 limits assumed): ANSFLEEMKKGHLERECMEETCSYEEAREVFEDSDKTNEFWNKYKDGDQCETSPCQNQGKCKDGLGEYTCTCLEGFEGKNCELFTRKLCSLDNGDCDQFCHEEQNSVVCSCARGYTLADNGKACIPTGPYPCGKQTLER
- Sequence (P00742 235-488 limits assumed): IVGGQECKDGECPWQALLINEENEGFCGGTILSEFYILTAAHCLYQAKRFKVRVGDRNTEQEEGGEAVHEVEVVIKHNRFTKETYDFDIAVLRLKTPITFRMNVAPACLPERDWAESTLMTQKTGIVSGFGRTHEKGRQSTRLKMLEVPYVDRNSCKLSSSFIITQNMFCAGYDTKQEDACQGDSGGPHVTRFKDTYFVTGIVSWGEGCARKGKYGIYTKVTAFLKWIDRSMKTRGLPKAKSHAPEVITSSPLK
- TEST DETAILS: Inhibition of human factor 10a using S-2222 chromogenic substrate assessed as hydrolysis at 1.36 uM by microplate reader
Active and inactive are the calls of the source. No cut-off for these calls is given here.
MEASURED ATTRIBUTE: inhibition

Solved entries:
CN1CCCN(c2ccc(C(=O)Nc3ccccc3C(=O)Nc3cccc(Cl)c3)cc2)CC1 | 76%
CN1CCCN(c2ccc(C(=O)Nc3ccccc3C(=O)Nc3ccccn3)cc2)CC1 | 38%
Cc1cccc(NC(=O)c2ccccc2NC(=O)c2ccc(N3CCCN(C)CC3)cc2)n1 | 9%
COc1ccc(NC(=O)c2ccccc2NC(=O)c2ccc(N3CCCN(C)CC3)cc2)cn1 | 7%
COc1ccc(NC(=O)c2ccccc2NC(=O)c2ccc(N3CCCN(C)CC3)cc2)cc1Cl | 39%
CN1CCCN(c2ccc(C(=O)Nc3ccccc3C(=O)Nc3ccc(Cl)cc3)cc2)CC1 | 100%
Cc1cc(NC(=O)c2ccccc2NC(=O)c2ccc(N3CCCN(C)CC3)cc2)sn1 | inactive
CCc1ccc(NC(=O)c2ccccc2NC(=O)c2ccc(N3CCCN(C)CC3)cc2)cc1 | 15%
COc1ccc(NC(=O)c2ccccc2NC(=O)c2ccc(N3CCCN(C)CC3)cc2)cc1.Cl | 85%
Cc1ccccc1NC(=O)c1ccccc1NC(=O)c1ccc(N2CCCN(C)CC2)cc1 | 16%

QUERY: Look up inhibition for this molecule: CN1CCCN(c2ccc(C(=O)Nc3ccccc3C(=O)Nc3ccc4ccccc4n3)cc2)CC1
RESULT: inactive

QUERY: Same question, CC(C)c1ccc(NC(=O)c2ccccc2NC(=O)c2ccc(N3CCCN(C)CC3)cc2)cc1 this time
RESULT: 23%

QUERY: Same question, COc1ccc(NC(=O)c2ccccc2NC(=O)c2ccc(N3CCCN(C)CC3)cc2)cc1OC this time
RESULT: inactive

QUERY: Same question, CN1CCCN(c2ccc(C(=O)Nc3ccccc3C(=O)Nc3nc4ccccc4[nH]3)cc2)CC1 this time
RESULT: inactive

QUERY: Same question, Cc1ccnc(NC(=O)c2ccccc2NC(=O)c2ccc(N3CCCN(C)CC3)cc2)c1 this time
RESULT: 56%
